System: H3K27 methylation in G401 cell
Experiment: ELISA (H3K27 methylation) assay in G401 cells
Assay type: cell-based, human
Details: Homo sapiens, G-401, read-out: (c) IC50, ELISA Qualified

SMILES CODE: COc1cccc(F)c1CNc1ccc(-c2cnn(CCO)c2)c2nncn12
TGT: H3K27 methylation in G401 cell
IC50, nM: 118
//
SMILES CODE: COc1ccccc1CNc1ccc(-c2ccc(S(=O)(=O)C(C)C)nc2)c2nncn12
TGT: H3K27 methylation in G401 cell
IC50, nM: 14.2
//
SMILES CODE: COc1ccccc1CNc1ccc(-c2ccc(CN3CCC3)cc2)c2nncn12
TGT: H3K27 methylation in G401 cell
IC50, nM: 23.1
//
SMILES CODE: COc1cccc(F)c1CNc1ccc(-c2ccc(C(=O)N3CCCC3)cc2)c2nncn12
TGT: H3K27 methylation in G401 cell
IC50, nM: 12.6
//
SMILES CODE: COc1ccccc1CNc1ccc(-c2c(C)noc2C)c2nncn12
TGT: H3K27 methylation in G401 cell
IC50, nM: 66.7
//
SMILES CODE: COc1ccccc1CNc1ccc(-c2cc(F)c(CN(C)C)c(F)c2)c2nncn12
TGT: H3K27 methylation in G401 cell
IC50, nM: 3.8

###

Biological target: EED (1-441)-His protein (Homo sapiens)
Construct: 30 nM EED (1-441)-His protein
Assay: EED-H3K27Me3 peptide competition binding assay by AlphaScreen
Settings: EED-H3K27Me3 peptide competition, AlphaScreen; read-out: (a) IC50 EED Alphascreen binding Qualified
pIC50: −log10 of the molar value.
Below, each of the compounds is paired with its reported pIC50 value.

COMPOUND: COc1cccc(F)c1CNc1ccc(-c2c(C)nn(CC(C)O)c2C)c2nncn12 (stereo not drawn) [Example 274]
pIC50: 7.84
//
COMPOUND: COc1cccc(F)c1CNc1ccc(-c2ccc(Cl)nc2C)c2nncn12 [Example 263]
pIC50: 7.77
//
COMPOUND: COc1cc(F)cc(F)c1CNc1ccc(-c2cnccc2C)c2nncn12 [Example 253]
pIC50: 7.18
//
COMPOUND: COc1cccc(F)c1CNc1ccc(-c2cncnc2C(F)F)c2nncn12 [Example 290]
pIC50: 7.51
//
COMPOUND: COc1cccc(F)c1CNc1ccc(-c2ccccc2C(F)(F)F)c2nncn12 [Example 193]
pIC50: 6.55
//
COMPOUND: COc1cc(F)cc(F)c1CNc1c(F)cc(-c2cccnc2C)c2nncn12 [Example 320]
pIC50: 6.37
//
COMPOUND: COc1cccc(F)c1CNc1ccc(-c2cn(C)nc2CO)c2nncn12 [Example 330]
pIC50: 7.62
//
COMPOUND: COc1cccc(F)c1CNc1ccc(-c2cccnc2CF)c2nncn12 [Example 294]
pIC50: 7.62
//
COMPOUND: COc1cccc(F)c1CNc1ccc(-c2ccc(C#N)nc2C)c2nncn12 [Example 250]
pIC50: 7.84

###

Target: EED (1-441)-His protein (Homo sapiens, UniProt O75530)
Construct: 30 nM EED (1-441)-His protein
Sequence (O75530 whole entry): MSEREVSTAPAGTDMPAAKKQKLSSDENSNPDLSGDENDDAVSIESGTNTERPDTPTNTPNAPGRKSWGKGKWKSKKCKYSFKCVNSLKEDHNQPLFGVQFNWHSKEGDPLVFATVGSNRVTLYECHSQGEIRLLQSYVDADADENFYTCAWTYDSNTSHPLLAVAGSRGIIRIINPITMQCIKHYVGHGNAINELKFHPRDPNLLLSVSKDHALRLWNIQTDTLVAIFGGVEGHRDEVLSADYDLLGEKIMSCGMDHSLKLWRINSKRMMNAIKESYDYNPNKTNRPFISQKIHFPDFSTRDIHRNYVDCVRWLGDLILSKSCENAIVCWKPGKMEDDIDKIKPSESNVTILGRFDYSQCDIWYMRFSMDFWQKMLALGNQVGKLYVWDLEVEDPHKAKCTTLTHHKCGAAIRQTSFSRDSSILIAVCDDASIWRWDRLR
Experiment: EED-H3K27Me3 peptide competition binding assay by AlphaScreen
Conditions: EED-H3K27Me3 peptide competition, AlphaScreen; read-out: (a) IC50 EED Alphascreen binding Qualified
Below, each of the molecules is paired with its reported IC50 value.

MOLECULE: CCOc1ncc(-c2ccc(NCc3c(F)cc(F)cc3OC)n3cnnc23)c(C)n1 [Example 343]
IC50 [nM]: 25.7

MOLECULE: CCc1ncccc1-c1ccc(NCc2c(F)cc(F)cc2OC)n2cnnc12 [Example 298]
IC50 [nM]: 67.9

MOLECULE: COc1cccc(F)c1CNc1ccc(-c2ccc(N3CCOCC3)nc2)c2nncn12 [Example 172]
IC50 [nM]: 56.4

MOLECULE: CNC(=O)c1cncc(-c2ccc(NCc3c(F)cccc3OC)n3cnnc23)c1 [Example 182]
IC50 [nM]: 20.4

MOLECULE: COc1cc(F)cc(F)c1CNc1ccc(-c2ccc(S(C)(=O)=O)nc2C)c2nncn12 [Example 241]
IC50 [nM]: 16.2

MOLECULE: COc1cccc(F)c1CNc1ccc(-c2cc(C(F)F)ncc2C)c2nncn12 [Example 306]
IC50 [nM]: 30.9

MOLECULE: COc1cccc(F)c1CNc1ccc(-c2ccc(F)cc2C)c2nncn12 [Example 201]
IC50 [nM]: 46.5

MOLECULE: COc1cccc(F)c1CNc1ccc(-c2cnc(C(=O)N(C)C)cc2C)c2nncn12 [Example 252]
IC50 [nM]: 14.1

MOLECULE: COc1cccc(F)c1CNc1ccc(-c2cc(C(F)(F)F)ncc2C)c2nncn12 [Example 281]
IC50 [nM]: 23

MOLECULE: COc1cccc(F)c1CNc1ccc(-c2cnc(S(C)(=O)=O)cc2C(F)F)c2nncn12 [Example 301]
IC50 [nM]: 23.7

MOLECULE: COc1cccc(F)c1CNc1ccc(-c2ccc(S(C)(=O)=O)nc2C(F)F)c2nncn12 [Example 293]
IC50 [nM]: 31.4

MOLECULE: COc1cccc(F)c1CNc1ccc(-c2ccnc(F)c2C)c2nncn12 [Example 276]
IC50 [nM]: 13.9

MOLECULE: COc1cccc(F)c1CNc1ccc(-c2c(C)n[nH]c2C)c2nncn12 [Example 187]
IC50 [nM]: 41.6

MOLECULE: COc1cccc(F)c1CNc1ccc(-c2ccc(N(C)C)nc2)c2nncn12 [Example 174]
IC50 [nM]: 47.2

MOLECULE: COc1cc(F)cc(F)c1CNc1ccc(-c2ccncc2)c2nncn12 [Example 228]
IC50 [nM]: 78.9

MOLECULE: COc1cccc(F)c1CNc1ccc(-c2cnc(C3CC3)cc2C)c2nncn12 [Example 270]
IC50 [nM]: 27.3

MOLECULE: COc1cccc(F)c1CNc1ccc(-c2c(Cl)ccnc2C)c2nncn12 [Example 338]
IC50 [nM]: 7.4

MOLECULE: COc1cccc(F)c1CNc1ccc(-c2cncc(C(C)O)c2)c2nncn12 (stereo not shown) [Example 197]
IC50 [nM]: 414

MOLECULE: COc1cccc(F)c1CNc1ccc(-c2ccc(CCC(=O)N(C)C)nc2)c2nncn12 [Example 234]
IC50 [nM]: 35

MOLECULE: COc1cccc(F)c1CNc1ccc(-c2ccc(C(=O)N(C)C)nc2C)c2nncn12 [Example 269]
IC50 [nM]: 8.9

MOLECULE: COc1cccc(F)c1CNc1ccc(-c2ccc(N3CCCC3=O)nc2)c2nncn12 [Example 215]
IC50 [nM]: 20

MOLECULE: COc1cccc(F)c1CNc1ccc(-c2cn(C(C)C)nc2C)c2nncn12 [Example 282]
IC50 [nM]: 10.7

MOLECULE: COc1cccc(F)c1CNc1ccc(-c2cnc(N3CCOCC3)nc2C)c2nncn12 [Example 261]
IC50 [nM]: 17.6

MOLECULE: COc1cc(F)cc(F)c1CNc1ccc(-c2cccnc2C)c2nncn12 [Example 239]
IC50 [nM]: 24.6

MOLECULE: COc1ccc(F)c(F)c1CNc1ccc(-c2ccncc2)c2nncn12 [Example 243]
IC50 [nM]: 329

MOLECULE: COc1cccc(F)c1CNc1ccc(-c2cncc(OCCS(C)(=O)=O)c2)c2nncn12 [Example 204]
IC50 [nM]: 143

MOLECULE: COc1ccncc1-c1ccc(NCc2c(F)cccc2OC)n2cnnc12 [Example 190]
IC50 [nM]: 41.5

MOLECULE: COc1cccc(F)c1CNc1ccc(-c2cnc(C)cc2C)c2nncn12 [Example 268]
IC50 [nM]: 19.4

MOLECULE: CCc1ccccc1-c1ccc(NCc2c(F)cccc2OC)n2cnnc12 [Example 254]
IC50 [nM]: 263

MOLECULE: COc1cc(C)c(-c2ccc(NCc3c(F)cc(F)cc3OC)n3cnnc23)cn1 [Example 318]
IC50 [nM]: 71.6

MOLECULE: COc1ccc(F)c(F)c1CNc1ccc(-c2cccnc2C)c2nncn12 [Example 286]
IC50 [nM]: 112

MOLECULE: COc1cccc(F)c1CNc1ccc(-c2cccnc2Cl)c2nncn12 [Example 213]
IC50 [nM]: 20.5

MOLECULE: COc1cccc(F)c1CNc1ccc(-c2cnc(Cl)cc2C)c2nncn12 [Example 267]
IC50 [nM]: 17

MOLECULE: COc1cccc(F)c1CNc1ccc(-c2cn(C)nc2C)c2nncn12 [Example 186]
IC50 [nM]: 65.9
